assay: Alamar Blue cell viability assay; format: cell-based; conditions: human
Listed here: items and their measured CC50.

These recorded examples may help you get a feel for the data.
query: Field request: CC50 | item: Cc1cc(Cl)ccc1COc1ccnn1-c1cc(C(=O)O)ccn1 [Example 11]
result: ≥ 50 µM

query: Try this compound next: Nc1c(C(=O)O)ccnc1C(=O)O [Example 7, reference compound]
result: ≥ 100 µM

Here is the next item to consider.
query: Which CC50 is listed for CCN(CCN(C)C)C(=O)CNCc1cc(/C=N/CCO)ccn1 [Example 16] ?
result: ≥ 50 µM

====

molecular target: KDM5C (Homo sapiens, UniProt P41229); construct: host or cells: Sf9 cells; assay: Biochemical KDM inhibition assay (LANCE), KDM5C; conditions: read-out: Biochemical IC50 KDM 5C
Sequence (P41229 whole entry): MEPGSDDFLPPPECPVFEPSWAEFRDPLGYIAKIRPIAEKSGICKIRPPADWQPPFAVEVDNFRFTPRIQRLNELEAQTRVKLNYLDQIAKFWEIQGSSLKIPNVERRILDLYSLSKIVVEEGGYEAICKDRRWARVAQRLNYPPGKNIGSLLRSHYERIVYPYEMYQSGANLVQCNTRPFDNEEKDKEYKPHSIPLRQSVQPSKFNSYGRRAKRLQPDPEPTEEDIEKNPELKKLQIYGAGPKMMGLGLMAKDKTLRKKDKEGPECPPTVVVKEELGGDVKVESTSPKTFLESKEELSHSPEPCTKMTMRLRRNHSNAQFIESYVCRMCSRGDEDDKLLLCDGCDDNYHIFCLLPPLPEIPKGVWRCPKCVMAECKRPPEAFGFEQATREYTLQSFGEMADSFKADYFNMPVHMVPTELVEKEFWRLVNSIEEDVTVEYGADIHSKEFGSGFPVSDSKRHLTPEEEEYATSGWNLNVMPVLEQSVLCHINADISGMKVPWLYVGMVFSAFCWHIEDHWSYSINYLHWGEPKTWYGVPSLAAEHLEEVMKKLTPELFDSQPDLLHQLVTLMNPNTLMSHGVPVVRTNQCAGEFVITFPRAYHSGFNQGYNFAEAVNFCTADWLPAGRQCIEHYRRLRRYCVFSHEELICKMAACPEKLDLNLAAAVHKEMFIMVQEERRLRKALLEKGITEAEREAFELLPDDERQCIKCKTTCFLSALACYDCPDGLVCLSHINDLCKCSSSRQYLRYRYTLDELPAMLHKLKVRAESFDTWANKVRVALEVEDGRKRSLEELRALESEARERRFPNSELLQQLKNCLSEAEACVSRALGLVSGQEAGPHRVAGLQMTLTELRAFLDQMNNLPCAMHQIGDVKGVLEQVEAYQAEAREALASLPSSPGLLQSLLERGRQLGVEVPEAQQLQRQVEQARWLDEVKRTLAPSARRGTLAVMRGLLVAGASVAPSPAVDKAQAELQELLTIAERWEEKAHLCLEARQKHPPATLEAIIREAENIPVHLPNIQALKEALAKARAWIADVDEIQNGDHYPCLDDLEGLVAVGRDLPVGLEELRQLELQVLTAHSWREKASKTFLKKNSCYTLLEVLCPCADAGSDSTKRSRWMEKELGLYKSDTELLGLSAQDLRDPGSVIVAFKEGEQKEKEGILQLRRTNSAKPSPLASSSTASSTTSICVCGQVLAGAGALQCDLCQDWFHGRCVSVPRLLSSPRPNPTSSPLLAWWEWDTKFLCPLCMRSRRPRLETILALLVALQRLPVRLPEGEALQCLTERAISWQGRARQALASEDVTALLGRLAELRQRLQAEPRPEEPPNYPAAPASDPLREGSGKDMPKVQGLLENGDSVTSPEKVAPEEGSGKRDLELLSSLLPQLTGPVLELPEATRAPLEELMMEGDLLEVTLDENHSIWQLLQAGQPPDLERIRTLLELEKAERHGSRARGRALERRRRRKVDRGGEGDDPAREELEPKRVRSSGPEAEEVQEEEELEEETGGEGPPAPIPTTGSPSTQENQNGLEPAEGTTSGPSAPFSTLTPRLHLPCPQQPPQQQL
pIC50: −log10 of the molar value.
Binary classification by pIC50, with 7 as an inclusive lower bound for true (1); all other cases are false (0).

query: Does the reported pIC50 for Cc1cc(Cl)ccc1COc1ccnn1-c1cc(C(=O)O)ccn1 fall at or above the 7 mark?
result: false (0)

query: Now try Nc1c(C(=O)O)ccnc1C(=O)O [Example 7, reference compound] .
result: false (0)

query: Do the same for CCN(CCN(C)C)C(=O)CNCc1cc(C(=O)O)ccn1 please
result: true (1)

query: Lookup N#CNC(=O)c1ccncc1Nc1nn(CCN2CCC(F)(F)CC2)c2ccc(F)cc12
result: false (0)

New cases:
query: Could you verify whether the entry CCN(CC)CCCCNCc1cc(C(=O)O)ccn1 shows pIC50 of no less than 7?
result: true (1)

====

target: KDM5D (Homo sapiens); construct: host or cells: Sf9 cells; assay: Biochemical KDM inhibition assay (LANCE), KDM5D; details: read-out: Biochemical IC50 KDM 5D
Sequence (Q9BY66 whole entry): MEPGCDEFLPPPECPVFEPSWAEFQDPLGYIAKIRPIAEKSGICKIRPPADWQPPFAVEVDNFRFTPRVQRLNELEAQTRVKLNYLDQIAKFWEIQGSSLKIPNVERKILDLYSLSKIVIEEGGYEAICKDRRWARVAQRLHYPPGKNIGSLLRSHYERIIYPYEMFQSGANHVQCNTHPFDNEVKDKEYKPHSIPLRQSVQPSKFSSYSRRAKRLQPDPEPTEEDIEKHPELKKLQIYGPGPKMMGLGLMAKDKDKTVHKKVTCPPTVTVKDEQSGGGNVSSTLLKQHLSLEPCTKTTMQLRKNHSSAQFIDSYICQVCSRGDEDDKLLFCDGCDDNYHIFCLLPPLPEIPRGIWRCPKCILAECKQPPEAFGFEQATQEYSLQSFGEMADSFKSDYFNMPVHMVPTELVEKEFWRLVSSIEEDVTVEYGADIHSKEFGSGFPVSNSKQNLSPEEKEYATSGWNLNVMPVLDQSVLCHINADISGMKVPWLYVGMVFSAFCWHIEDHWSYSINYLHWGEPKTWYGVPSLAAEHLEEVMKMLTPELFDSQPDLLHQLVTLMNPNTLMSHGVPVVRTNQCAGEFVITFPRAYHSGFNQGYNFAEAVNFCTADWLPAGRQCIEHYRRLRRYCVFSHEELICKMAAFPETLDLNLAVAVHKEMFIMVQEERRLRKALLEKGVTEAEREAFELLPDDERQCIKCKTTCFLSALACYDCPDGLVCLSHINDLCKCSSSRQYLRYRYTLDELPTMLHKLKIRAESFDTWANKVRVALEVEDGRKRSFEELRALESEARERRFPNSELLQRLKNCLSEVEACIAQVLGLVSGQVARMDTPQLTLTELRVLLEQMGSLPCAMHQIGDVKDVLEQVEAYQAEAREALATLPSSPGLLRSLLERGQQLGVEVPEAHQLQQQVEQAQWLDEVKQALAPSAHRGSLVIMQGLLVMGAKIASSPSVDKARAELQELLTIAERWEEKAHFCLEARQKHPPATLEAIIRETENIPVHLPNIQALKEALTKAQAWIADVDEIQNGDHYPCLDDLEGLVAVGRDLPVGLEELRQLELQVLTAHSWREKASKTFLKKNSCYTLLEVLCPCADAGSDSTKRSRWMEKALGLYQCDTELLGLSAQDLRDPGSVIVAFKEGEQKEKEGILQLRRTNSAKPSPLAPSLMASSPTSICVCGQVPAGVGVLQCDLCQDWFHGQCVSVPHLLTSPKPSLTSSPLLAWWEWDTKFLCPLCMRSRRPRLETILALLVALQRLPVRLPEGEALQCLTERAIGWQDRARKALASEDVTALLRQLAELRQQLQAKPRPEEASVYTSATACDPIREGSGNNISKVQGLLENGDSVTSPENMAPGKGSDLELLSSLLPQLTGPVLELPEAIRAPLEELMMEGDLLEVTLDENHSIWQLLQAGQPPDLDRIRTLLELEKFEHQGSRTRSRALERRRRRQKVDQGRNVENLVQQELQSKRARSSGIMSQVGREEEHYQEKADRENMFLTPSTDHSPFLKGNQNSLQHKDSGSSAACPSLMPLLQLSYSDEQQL
Entries whose IC50 is below 70 nM take True; entries at or above 70 nM take False.

Some solved entries appear below for comparison.
query: For this compound, is IC50 lower than 70 nM? CCN(CCN(C)C)C(=O)CNCc1cc(C(=O)O)ccn1
result: True

query: Try this compound too: O=C(O)c1ccnc(-n2ncc(CCO)c2OCc2ccc(F)cc2)c1
result: False

query: Query CCN(CC)CCCCNCc1cc(C(=O)O)ccn1 next
result: True

query: Query N#CNC(=O)c1ccncc1Nc1nn(CCN2CCC(F)(F)CC2)c2ccc(F)cc12 next
result: False

query: Quick one: O=C(O)c1ccncc1Nc1nn(CCN2CCC(F)(F)CC2)c2ccc(F)cc12
result: True

query: Record: Cc1cc(Cl)ccc1COc1ccnn1-c1cc(C(=O)O)ccn1
result: False

Read the next record carefully.
query: Record Nc1c(C(=O)O)ccnc1C(=O)O [Example 7, reference compound] : is its IC50 strictly below 70 nM?
result: False

====

tested on: HBV; assay: PHH screening protocol: HBsAg and HBeAg levels by MSD ELISA; format: cell-based, Hepatitis B Virus; details: Hepatitis B virus, 408 h, read-out: HBsAg EC50, virus 32P (GTA); PHH 4239; day 17 p.i.
property.measured: EC50 (nM)
Field: numeric (nM). Do not append units.

query: State the recorded EC50 for this entry: CCOC(=O)c1ccnc(CNCC(=O)N(CC)CCN(C)C)c1
result: 30

====

Reported pIC50 is given for each of the following compounds.
biological target: KDM4C (Homo sapiens, UniProt Q9H3R0)
Sequence (Q9H3R0 whole entry): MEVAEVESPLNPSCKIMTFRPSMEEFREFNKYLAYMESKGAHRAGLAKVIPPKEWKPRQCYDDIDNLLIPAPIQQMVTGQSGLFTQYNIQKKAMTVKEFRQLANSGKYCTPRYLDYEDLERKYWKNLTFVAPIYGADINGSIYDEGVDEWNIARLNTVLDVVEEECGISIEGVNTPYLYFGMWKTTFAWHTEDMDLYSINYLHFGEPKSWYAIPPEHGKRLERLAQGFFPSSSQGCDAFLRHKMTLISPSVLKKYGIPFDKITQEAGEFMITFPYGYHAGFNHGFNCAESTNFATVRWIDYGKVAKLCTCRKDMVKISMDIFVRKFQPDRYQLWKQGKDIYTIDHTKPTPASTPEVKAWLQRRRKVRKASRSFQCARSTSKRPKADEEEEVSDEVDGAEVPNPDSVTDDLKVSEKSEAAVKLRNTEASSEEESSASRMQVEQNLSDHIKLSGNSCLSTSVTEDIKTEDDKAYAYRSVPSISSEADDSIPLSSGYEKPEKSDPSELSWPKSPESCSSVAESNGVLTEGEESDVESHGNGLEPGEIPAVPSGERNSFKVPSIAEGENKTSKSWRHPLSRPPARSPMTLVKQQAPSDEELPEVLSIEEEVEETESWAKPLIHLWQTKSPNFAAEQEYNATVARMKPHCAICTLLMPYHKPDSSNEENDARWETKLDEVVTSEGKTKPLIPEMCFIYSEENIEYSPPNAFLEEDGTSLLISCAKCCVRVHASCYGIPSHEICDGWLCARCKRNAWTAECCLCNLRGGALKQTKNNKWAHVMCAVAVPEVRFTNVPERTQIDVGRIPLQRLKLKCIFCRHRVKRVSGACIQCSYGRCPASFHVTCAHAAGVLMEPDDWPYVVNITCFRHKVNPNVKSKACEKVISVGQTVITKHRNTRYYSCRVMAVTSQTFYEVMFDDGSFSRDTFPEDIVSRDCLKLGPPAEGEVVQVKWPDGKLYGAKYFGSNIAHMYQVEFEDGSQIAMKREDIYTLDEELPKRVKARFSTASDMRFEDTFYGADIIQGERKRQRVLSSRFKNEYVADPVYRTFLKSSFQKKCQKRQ
pIC50 (log units): -log10 of the concentration in mol/L.

query: GET /values?readout=pIC50&item= CCN(CCN(C)C)C(=O)CNCc1cc(C(=O)O)ccn1
result: 7.24

query: How about Cc1cc(Cl)ccc1COc1ccnn1-c1cc(C(=O)O)ccn1 ?
result: 6.96

query: Next entry: N#CNC(=O)c1ccncc1Nc1nn(CCN2CCC(F)(F)CC2)c2ccc(F)cc12
result: 5.51

query: And Nc1c(C(=O)O)ccnc1C(=O)O [Example 7, reference compound] ?
result: 6.96

query: Moving on to the next compound: O=C(O)c1ccncc1Nc1nn(CCN2CCC(F)(F)CC2)c2ccc(F)cc12
result: 6.59

query: Same read-out for CCN(CC)CCCCNCc1cc(C(=O)O)ccn1 ?
result: 6.46

The measurements presented in this section are drawn from patent US20160303095A1.
